Target: T1, Brat-NHL (Drosophila melanogaster, UniProt Q8MQJ9 756-1037)
T1 sequence: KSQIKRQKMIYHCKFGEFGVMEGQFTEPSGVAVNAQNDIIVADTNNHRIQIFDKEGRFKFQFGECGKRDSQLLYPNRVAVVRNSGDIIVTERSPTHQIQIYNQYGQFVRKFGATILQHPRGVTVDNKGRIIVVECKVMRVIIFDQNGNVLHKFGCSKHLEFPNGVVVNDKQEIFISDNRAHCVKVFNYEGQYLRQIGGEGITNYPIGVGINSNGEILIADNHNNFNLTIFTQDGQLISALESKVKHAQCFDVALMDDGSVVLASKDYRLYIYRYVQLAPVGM
Assay: ITC
value_kind: Kd (nM)
Your answer should be a plain number; it is taken to be in nM.

Data request, read-out Kd, for UUGUUGUCGAAAAUUGUACAUAA (structured_RNA) [NRE2 (23-mer)] 370

Which value of Kd has been reported for UUGUUG (ssRNA) [BoxA] in the records? 1100
